Assay: Stability studies: storage at room temperature and under accelerated storage condition (ATS), purity estimated by HPLC
Assay type: physicochemical
Settings: Day Zero; 54° C. ± 2° C. (accelerated storage); properly packed material
From the text: The properly packed material was subjected to the conditions mentioned in the table below (Table 5).
reported endpoint: purity estimated by HPLC, Day Zero Condition 54° C. ± 2° C.
Kindly provide the number alone.

[
  {
    "compound": "N#Cc1ccc(/C=C/C=N/[C@@H](CCCNC(=N)N)C(=O)O)cc1",
    "number": 99.43
  },
  {
    "compound": "N=C(N)NCCC[C@H](/N=C/C=C/c1ccccc1)C(=O)O",
    "number": 99.63
  },
  {
    "compound": "N=C(N)NCCC[C@H](/N=C/C=C/c1ccc2ccccc2c1)C(=O)O",
    "number": 98.75
  }
]

Answer with the recorded purity estimated by HPLC, Day Zero Condition 54° C. ± 2° C. of `N=C(N)NCCC[C@H](/N=C/C=C/c1c(O)cccc1F)C(=O)O` only.
99.10

Answer with the recorded purity estimated by HPLC, Day Zero Condition 54° C. ± 2° C. of N#Cc1ccc(C=CC=NC(CCCNC(=N)N)C(=O)O)c(C(F)(F)F)c1 (centres unmarked) only.
99.40

Value source: patent US20260231945A1
